target: N-type calcium channel (NTCC) (Homo sapiens, UniProt Q00975); construct: endogenous in cells; experiment: FLIPR calcium mobilization assay for N-type calcium channel (differentiated IMR32 cells); settings: N-type calcium channel blockers, calcium mobilization in vitro assay
Sequence (Q00975 whole entry): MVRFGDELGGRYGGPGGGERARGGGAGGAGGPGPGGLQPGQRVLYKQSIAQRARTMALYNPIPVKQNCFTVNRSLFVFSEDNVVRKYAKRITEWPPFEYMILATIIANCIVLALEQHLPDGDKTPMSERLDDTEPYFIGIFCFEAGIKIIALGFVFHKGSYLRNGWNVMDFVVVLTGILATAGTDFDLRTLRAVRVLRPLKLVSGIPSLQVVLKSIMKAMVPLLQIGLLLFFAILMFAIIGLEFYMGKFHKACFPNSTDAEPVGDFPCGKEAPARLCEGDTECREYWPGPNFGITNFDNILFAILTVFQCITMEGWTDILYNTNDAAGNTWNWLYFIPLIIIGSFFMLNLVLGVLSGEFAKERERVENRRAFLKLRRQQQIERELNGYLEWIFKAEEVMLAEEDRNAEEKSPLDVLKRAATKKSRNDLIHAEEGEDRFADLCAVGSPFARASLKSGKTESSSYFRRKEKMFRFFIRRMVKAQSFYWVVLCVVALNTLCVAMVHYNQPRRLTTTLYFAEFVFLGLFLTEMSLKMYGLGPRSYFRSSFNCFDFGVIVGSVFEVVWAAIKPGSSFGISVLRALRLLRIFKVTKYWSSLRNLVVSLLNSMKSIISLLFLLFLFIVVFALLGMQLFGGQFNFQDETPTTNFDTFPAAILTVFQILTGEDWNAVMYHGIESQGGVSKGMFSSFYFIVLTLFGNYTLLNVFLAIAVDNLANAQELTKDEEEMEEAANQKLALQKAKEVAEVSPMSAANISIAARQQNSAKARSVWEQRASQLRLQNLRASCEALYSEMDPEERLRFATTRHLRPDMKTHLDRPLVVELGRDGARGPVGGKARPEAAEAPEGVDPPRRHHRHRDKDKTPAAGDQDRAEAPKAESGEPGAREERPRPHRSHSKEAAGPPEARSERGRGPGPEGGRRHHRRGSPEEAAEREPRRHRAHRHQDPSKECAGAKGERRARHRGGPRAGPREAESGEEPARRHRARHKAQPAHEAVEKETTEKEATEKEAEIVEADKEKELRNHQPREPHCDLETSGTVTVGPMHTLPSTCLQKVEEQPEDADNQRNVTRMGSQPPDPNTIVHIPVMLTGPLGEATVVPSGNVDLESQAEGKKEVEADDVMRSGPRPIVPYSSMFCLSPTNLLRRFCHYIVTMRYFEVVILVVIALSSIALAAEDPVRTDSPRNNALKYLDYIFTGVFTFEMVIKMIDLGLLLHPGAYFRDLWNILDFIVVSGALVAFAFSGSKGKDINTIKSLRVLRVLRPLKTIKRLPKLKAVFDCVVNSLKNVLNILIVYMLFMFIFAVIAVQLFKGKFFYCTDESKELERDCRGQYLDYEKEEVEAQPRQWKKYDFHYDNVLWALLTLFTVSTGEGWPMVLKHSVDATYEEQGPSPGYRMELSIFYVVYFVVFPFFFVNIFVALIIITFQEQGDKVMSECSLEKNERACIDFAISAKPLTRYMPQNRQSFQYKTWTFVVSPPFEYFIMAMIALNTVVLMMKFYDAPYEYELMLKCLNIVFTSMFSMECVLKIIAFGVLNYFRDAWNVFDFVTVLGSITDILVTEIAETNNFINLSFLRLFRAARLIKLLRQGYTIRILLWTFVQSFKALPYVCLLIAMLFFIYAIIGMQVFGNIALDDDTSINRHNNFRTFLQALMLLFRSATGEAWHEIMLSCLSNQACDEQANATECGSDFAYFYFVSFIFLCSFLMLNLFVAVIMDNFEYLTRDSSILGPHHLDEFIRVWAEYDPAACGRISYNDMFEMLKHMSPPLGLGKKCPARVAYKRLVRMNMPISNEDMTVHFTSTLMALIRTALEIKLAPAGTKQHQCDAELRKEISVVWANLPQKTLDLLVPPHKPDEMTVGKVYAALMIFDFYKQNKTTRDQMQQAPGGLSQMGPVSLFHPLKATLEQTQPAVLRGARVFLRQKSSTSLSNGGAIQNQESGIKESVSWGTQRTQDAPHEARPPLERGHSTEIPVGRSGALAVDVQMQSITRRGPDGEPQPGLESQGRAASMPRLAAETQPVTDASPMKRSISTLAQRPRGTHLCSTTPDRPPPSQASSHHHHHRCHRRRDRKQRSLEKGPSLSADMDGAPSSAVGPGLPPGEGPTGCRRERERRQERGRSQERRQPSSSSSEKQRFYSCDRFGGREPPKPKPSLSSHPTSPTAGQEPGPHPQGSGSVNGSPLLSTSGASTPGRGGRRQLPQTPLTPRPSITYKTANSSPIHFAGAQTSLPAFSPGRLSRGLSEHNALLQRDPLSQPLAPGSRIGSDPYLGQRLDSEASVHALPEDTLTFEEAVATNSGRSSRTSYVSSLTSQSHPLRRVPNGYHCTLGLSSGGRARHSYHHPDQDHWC
Sequence (P54289 25-956 partner limits assumed): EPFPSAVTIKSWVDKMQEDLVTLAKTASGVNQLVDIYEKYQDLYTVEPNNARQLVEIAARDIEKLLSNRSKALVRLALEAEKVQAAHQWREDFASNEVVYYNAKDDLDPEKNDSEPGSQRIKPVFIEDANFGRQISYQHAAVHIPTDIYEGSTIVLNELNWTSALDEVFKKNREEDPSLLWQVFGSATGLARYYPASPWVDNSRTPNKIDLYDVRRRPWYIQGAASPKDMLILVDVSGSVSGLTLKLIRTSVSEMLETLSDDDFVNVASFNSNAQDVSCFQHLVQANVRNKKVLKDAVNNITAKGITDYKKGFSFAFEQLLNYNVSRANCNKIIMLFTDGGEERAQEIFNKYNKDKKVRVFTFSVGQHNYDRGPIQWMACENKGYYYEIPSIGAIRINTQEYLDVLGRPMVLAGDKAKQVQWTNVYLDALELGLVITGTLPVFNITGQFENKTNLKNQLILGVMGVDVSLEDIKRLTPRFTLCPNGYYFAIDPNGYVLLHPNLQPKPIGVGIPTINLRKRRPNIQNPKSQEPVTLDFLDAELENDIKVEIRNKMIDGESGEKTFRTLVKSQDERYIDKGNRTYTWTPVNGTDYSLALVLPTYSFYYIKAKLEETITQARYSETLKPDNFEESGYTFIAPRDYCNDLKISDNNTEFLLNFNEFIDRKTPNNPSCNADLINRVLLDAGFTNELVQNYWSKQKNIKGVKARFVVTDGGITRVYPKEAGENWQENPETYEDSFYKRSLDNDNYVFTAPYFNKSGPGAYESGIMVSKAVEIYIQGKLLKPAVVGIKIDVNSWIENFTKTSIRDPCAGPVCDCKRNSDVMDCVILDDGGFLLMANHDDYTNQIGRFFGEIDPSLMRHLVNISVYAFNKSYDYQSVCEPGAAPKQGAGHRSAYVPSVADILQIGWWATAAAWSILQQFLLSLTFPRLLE
Sequence (P54289 957-1103 partner limits assumed): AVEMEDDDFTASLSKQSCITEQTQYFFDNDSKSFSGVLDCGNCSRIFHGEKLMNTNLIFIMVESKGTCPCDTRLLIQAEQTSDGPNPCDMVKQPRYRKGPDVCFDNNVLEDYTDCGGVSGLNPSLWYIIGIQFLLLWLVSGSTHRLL
Sequence (P54284 whole entry partner): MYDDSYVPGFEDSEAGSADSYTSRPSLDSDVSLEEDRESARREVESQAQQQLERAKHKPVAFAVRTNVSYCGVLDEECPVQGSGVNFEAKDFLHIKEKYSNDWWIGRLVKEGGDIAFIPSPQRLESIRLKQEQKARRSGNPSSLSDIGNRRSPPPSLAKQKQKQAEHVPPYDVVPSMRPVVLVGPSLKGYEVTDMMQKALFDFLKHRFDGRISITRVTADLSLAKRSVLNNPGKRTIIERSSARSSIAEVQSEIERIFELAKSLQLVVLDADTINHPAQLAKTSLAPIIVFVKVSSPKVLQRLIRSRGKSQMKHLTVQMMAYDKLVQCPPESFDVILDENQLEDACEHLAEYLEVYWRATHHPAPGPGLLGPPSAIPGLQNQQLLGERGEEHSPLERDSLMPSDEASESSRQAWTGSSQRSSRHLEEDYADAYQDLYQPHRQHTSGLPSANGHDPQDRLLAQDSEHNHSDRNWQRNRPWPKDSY
pIC50: −log10 of the molar value.
property-name: pIC50

As a guide, the following entries are already answered.
N#Cc1cc(S(=O)(=O)N2CC=C(c3cccc(C(=O)NC4CC4)n3)CC2)ccc1F = 6.11
O=C(NC1CC1)c1ccnc(C2=CCN(S(=O)(=O)c3cccc(C(F)(F)F)c3)CC2)n1 = 7.22
O=C(NC1CC1)c1cccc(C2=CCN(S(=O)(=O)c3cccc(Cl)c3)CC2)n1 = 7.10

[A] O=C(NC1CC1)c1cccc(C2=CCN(S(=O)(=O)Nc3cccc(C(F)(F)F)c3)CC2)n1
[B] O=C(NCCC(F)(F)F)c1cccc(C2=CCN(S(=O)(=O)c3ccc(OC(F)(F)F)cc3)CC2)n1
Q. Identify the item whose pIC50 is the smaller number: A or B Give the label of your selection.
A. A

---

target: N-type calcium channel (NTCC) (Homo sapiens); construct: endogenous in cells; assay: FLIPR calcium mobilization assay for N-type calcium channel (differentiated IMR32 cells); details: N-type calcium channel blockers, calcium mobilization in vitro assay
property-name: IC50 (µM)

As a guide, the following entries are already answered.
O=C(NC1CC1)c1cccc(C2=CC(=O)N(S(=O)(=O)c3cccc(C(F)(F)F)c3)CC2)n1 = 0.02
O=C(NC(CO)CO)c1cccc(C2=CCN(S(=O)(=O)c3cccc(C(F)(F)F)c3)CC2)n1 = 0.09
O=C(NCCO)c1cccc(C2=CCN(S(=O)(=O)c3cccc(C(F)(F)F)c3)CC2)n1 = 0.07
O=C(NC1CC1)c1nc(C2=CCN(S(=O)(=O)c3ccc(OC(F)(F)F)cc3)CC2)ccc1Cl = 0.49

[a] O=C(NCC1CC1)c1cccc(C2=CCN(S(=O)(=O)c3cccc(C(F)(F)F)c3)CC2)n1
[b] O=C(NC1CC1)c1cccc(C2=CCN(S(=O)(=O)c3cccc(OC(F)(F)F)c3)CC2)n1
Q. Identify the item whose IC50 is the smaller number: a or b Give the label of your selection.
A. a
(a: 0.01 µM, b: 0.04 µM)

[I] O=C(NC1CC1)c1cccc(C2=CCN(S(=O)(=O)c3ccc(Cl)cc3Cl)CC2)n1
[II] O=C(NC1CC1)c1coc(C2=CCN(S(=O)(=O)c3ccc(OC(F)(F)F)cc3)CC2)n1
[III] COC(=O)c1cccc(C2=CCN(S(=O)(=O)c3cccc(C(F)(F)F)c3)CC2)n1
[IV] O=S(=O)(c1cccc(C(F)(F)F)c1)N1CC=C(c2cccc(CO)n2)CC1
Q. Sort the compounds on IC50; start with the lowest figure. Sort the labels as requested; that list is your answer.
A. I, II, III, IV
(I: 0.19 µM, II: 0.32 µM, III: 0.92 µM, IV: 4.24 µM)

[a] O=C(NC1CC1)c1cccc(C2=CCN(S(=O)(=O)c3cccnc3)CC2)n1
[b] O=C(NC1CC1)c1cccc(C2=CCN(S(=O)(=O)c3ccc(F)cc3)CC2)n1
[c] O=C(NC1CC1)c1cccc(C2=CCN(S(=O)(=O)c3cc(Cl)cc(Cl)c3)CC2)n1
Q. Sort the compounds on IC50; start with the lowest figure. Sort the labels as requested; that list is your answer.
A. c, b, a
(c: 0.05 µM, b: 0.35 µM, a: 6.18 µM)
